- Study System: ATP-dependent translocase ABCB1 (Homo sapiens)
- Assay Text: P-glycoprotein substrate transport blockade – cell-based (AID 377)
- Condition Set: MDR1-expressing cells, fluorescent substrate accumulation slope; concentration not given here
Inconclusive results are not listed. Active and inactive are the calls of the source. Cut-off read from the data, not from the text of the source: active = fluorescence slope change above about 50%; inconclusive = mostly about 31% to 49%; inactive = weaker than that.
Answer with one of the outcomes given here: yes (active), no (inactive)

Problem: Any idea what this test logged for NCC1OC(OC2C(N)CC(N)C(OC3OC(CO)C(O)C(N)C3O)C2O)C(O)C(O)C1O (configuration not stated) ?
Solution: no

Problem: Any idea what this test logged for COc1cc2cc(N(C)CCCNC(=O)C3CCCO3)cc(N)c2cc1OC (configuration not stated) ?
Solution: yes

Problem: Any idea what this test logged for CC[C@H]1OC(=O)[C@H](C)[C@@H](OC2CC(C)(OC)C(O)C(C)O2)[C@H](C)[C@@H](OC2OC(C)CC(N(C)C)C2O)[C@](C)(O)C[C@@H](C)/C(=N\OCOCCOC)[C@H](C)[C@@H](O)[C@]1(C)O (some centres not stated) ?
Solution: yes

Problem: Any idea what this test logged for Cn1c(-c2ccc3c(c2)OCO3)cc(=O)c2ccccc21 ?
Solution: no

Problem: Any idea what this test logged for CC[C@H]1OC(=O)[C@H](C)[C@@H](OC2CC(C)(OC)C(O)C(C)O2)[C@H](C)[C@@H](OC2OC(C)CC(N(C)C)C2O)[C@@H](C)C[C@](C)(O)[C@@H]2N[C@H](COCCOC)O[C@H]([C@H]2C)[C@]1(C)O (some centres not stated) ?
Solution: yes

Problem: Any idea what this test logged for NCC[C@H](O)C(=O)NC1CC(N)C(OC2OC(CN)C(O)C(O)C2O)C(O)C1OC1OC(CO)C(O)C(N)C1O (some centres not stated) ?
Solution: no

Problem: Any idea what this test logged for CC1=C(C(=O)O)N2C(=O)[C@@H](NC(=O)[C@H](N)c3ccc(O)cc3)C2SC1 (some centres not stated) ?
Solution: yes

----------
- Assay Text: MELAS cybrid and Rieske KO viability enhancers – cell-based, MELAS cybrids, Rieske KO mouse fibroblasts, CellTiter-Glo, primary screen (AID 1508586);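 note: z relative to plate mean and SD of compound and empty wells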
- Condition Set: MELAS cybrid survival, low glucose, CellTiter-Glo 48 h; stronger effect = higher value
Classification scheme (z-score): low (below -0.5), intermediate (-0.5 to below -0.2), high (-0.2 or more)

Problem: Input CC1COC(Nc2ccc3ncnc(Nc4ccc(OCc5nccs5)c(Cl)c4)c3c2)=N1 (stereo not given) ; output its category
Solution: high

Problem: Input CC(=O)O[C@]1(C(C)=O)CC[C@H]2[C@@H]3C=C(Cl)C4=CC(=O)C5CC5[C@]4(C)[C@H]3CC[C@@]21C (stereo not given in full) ; output its category
Solution: high

Problem: Input COc1cc(OC)c(-c2nnc3ccccn23)cc1OC ; output its category
Solution: high

Problem: Input O=C1C(Cc2ccc(O)cc2)N2C(=O)CCN(C(=O)NCc3ccccc3)[C@H]2CN1Cc1cccc2ccccc12 (stereo not given in full) ; output its category
Solution: low

Problem: Input CC(C)(CO)c1cc2cc(NC(=O)C3(c4ccc5c(c4)OC(F)(F)O5)CC3)c(F)cc2n1CC(O)CO (stereo not given) ; output its category
Solution: intermediate

Problem: Input N[C@@H](C(=O)N[C@@H]1C(=O)N2C(C(=O)O)=C(Cl)CC[C@H]12)c1ccccc1 ; output its category
Solution: high

Problem: Input CN(CCn1cccn1)Cc1ccc(-c2nc(-c3cccnc3)cc(=O)[nH]2)cc1 ; output its category
Solution: intermediate

Problem: Input CC(Nc1nc(N)nc2[nH]ncc12)c1ccc(Cl)cc1 (stereo not given) ; output its category
Solution: intermediate

Problem: Input CCC(CC)(NC(=O)C(C)C)C(=O)NC(CCCN=C(N)N)C(=O)NC1(C(=O)NC(c2ccc(F)cc2)c2ccc(F)cc2)CCCC1 (stereo not given) ; output its category
Solution: intermediate

Problem: Input CC(C)CCN1C(=O)N(CC(N)=O)C(=O)C12CCN(Cc1nc3ccccc3s1)CC2 ; output its category
Solution: intermediate

Problem: Input CNc1nc(Nc2cn(C(C)(C)C#N)nc2C)ncc1C(F)(F)F ; output its category
Solution: intermediate

Problem: Input COc1ccc(F)c(-c2cccc(N)n2)c1 ; output its category
Solution: high

Problem: Input O=C(C=Cc1ccc(CN(CCO)CCc2c[nH]c3ccccc23)cc1)NO ; output its category
Solution: high

Problem: Input CC(C)C[C@@H](NC(=O)[C@H](Cc1ccccc1)NC(=O)c1cnccn1)B(O)O ; output its category
Solution: low

Problem: Input Cc1cc(-c2cnn(CC(=O)Nc3ccnn3Cc3ccccc3)c2)nc(N)n1 ; output its category
Solution: low

Problem: Input Cc1cc(C)nc(-c2cnn(CC(=O)Nc3cnn(C)n3)c2)n1 ; output its category
Solution: high

Problem: Input CN1[C@@H]2CC[C@@H]1CC(OC(=O)C(O)c1ccccc1)C2 (stereo not given in full) ; output its category
Solution: intermediate

Problem: Input Cc1cc(=O)oc2c(C=O)c(O)ccc12 ; output its category
Solution: intermediate

Problem: Input COc1ccc(CNc2nc(N3CCCC3CO)ncc2C(=O)NCc2ncccn2)cc1Cl (stereo not given) ; output its category
Solution: low

Problem: Input CC(C)(C)c1cc(C(=O)C(C#N)=NNc2cccc(Cl)c2)no1 ; output its category
Solution: low

Problem: Input Cc1c(CN2CC(=O)N(Cc3ccccc3)CC(O)C2)c(=O)n(-c2ccccc2)n1C (stereo not given) ; output its category
Solution: high

Problem: Input O=C(C=Cn1cnc(-c2cc(C(F)(F)F)cc(C(F)(F)F)c2)n1)N1CC(F)(F)C1 ; output its category
Solution: low

Problem: Input COc1ccc(OC)c2c1c(C)cc(=O)n2C ; output its category
Solution: intermediate

Problem: Input O=C(Nc1n[nH]c(Cc2ccccc2)n1)N1CCN(c2ncccn2)CC1 ; output its category
Solution: high

Problem: Input OC(CC1c2ccccc2-c2cncn21)C1CCCCC1 (stereo not given) ; output its category
Solution: intermediate

Problem: Input Cc1[nH]c(C=C2C(=O)Nc3ccc(S(=O)(=O)Cc4c(Cl)cccc4Cl)cc32)c(C)c1C(=O)N1CCCC1CN1CCCC1 (stereo not given) ; output its category
Solution: low

Problem: Input Cc1cc(C)nc(-c2cnn(CC(=O)Nc3cc(C)nn3-c3ccccn3)c2)n1 ; output its category
Solution: low

Problem: Input C=C(C)C1CC[C@]2(C(=O)O)CC[C@]3(C)[C@H](CC[C@@H]4[C@@]5(C)CCC(O)C(C)(C)[C@@H]5CC[C@]43C)[C@@H]12 (stereo not given in full) ; output its category
Solution: high

Problem: Input Cc1onc(-c2ccccc2)c1C(=O)N1CC(=O)N(Cc2ccccc2)CC(OCC2CC2)C1 (stereo not given) ; output its category
Solution: high

Problem: Input CCNC(=O)c1cccnc1N1CCN(c2ccc(C)cc2C)CC1 ; output its category
Solution: intermediate

Problem: Input CC(C)[C@@H]1NC(=O)[C@@H]2C[C@H](NC(=O)c3cccc(Cl)c3)CN2C1=O ; output its category
Solution: high

Problem: Input COC(=O)CCN1CC(OCc2cccc(OC)c2)CN(C(=O)CCc2cccs2)CC1=O (stereo not given) ; output its category
Solution: intermediate

Problem: Input O=C(NN=Cc1cc(Br)c(O)c(Br)c1O)c1cccc(Br)c1 ; output its category
Solution: high

Problem: Input COC(=O)c1c(NC(=O)c2ccoc2)c2cc(NC3CCSCC3)cnc2n1CC(C)C ; output its category
Solution: intermediate

Problem: Input N#CC1C[C@@H]2C[C@H]2N1C(=O)C(N)C12CC3CC(CC(O)(C3)C1)C2 (stereo not given in full) ; output its category
Solution: intermediate

Problem: Input Cc1csc(-c2cc(C(=O)N3CCC(N(C)C)C3)cc(S(=O)(=O)N3CCOCC3)c2)c1 (stereo not given) ; output its category
Solution: high

Problem: Input COc1cc2c(cc1OC)CC(=O)N(CCCN(C)CC1Cc3cc(OC)c(OC)cc31)CC2 (stereo not given) ; output its category
Solution: intermediate

Problem: Input Cc1csc(CNc2nccc(-c3cn(C)nc3C)n2)n1 ; output its category
Solution: intermediate

Problem: Input CC(=O)Nc1nc2c(Oc3cc(-c4ccc(C(F)(F)F)cc4)ncn3)cccc2s1 ; output its category
Solution: intermediate

----------
Could you please report measured viability for the items listed next?
- Assay Text: drug combination growth inhibition, ovarian cancer – cell-based, oncology-focused library, rucaparib conditional, profiling panel (AID 1508598)
- Condition Set: patient-derived ovarian cancer cells, CellTiter-Glo viability, 144 h; at 0.00488 µM; OCI-P5x cells; without rucaparib; stronger effect = lower value
Response body: numeric value in %, unit text excluded.

Problem: Given CC(=O)O[C@@]1(C(C)=O)CC[C@H]2[C@@H]3C=C(C)C4=CC(=O)CC[C@]4(C)[C@@H]3CC[C@@]21C , state its recorded viability.
Solution: 96.3

Problem: Given CCCc1ccc(OCC(=O)N(Cc2nc(-c3cccnc3)no2)C(C)C)cc1 , state its recorded viability.
Solution: 101

Problem: Given CCC(C)(C)C(=O)O[C@@H]1C[C@@H](C)C=C2C=C[C@H](C)[C@@H](CC[C@@H]3C[C@@H](O)CC(=O)O3)[C@H]21 , state its recorded viability.
Solution: 110

Problem: Given C[C@]12CCC(=O)C=C1CC[C@@H]1[C@H]2[C@H](O)C[C@@]2(C)[C@H]1CC[C@@]2(O)C(=O)CO , state its recorded viability.
Solution: 117

Problem: Given C[C@@H]1C[C@H]2[C@@H]3CCC4=CC(=O)C=C[C@]4(C)[C@]3(F)[C@H](O)C[C@]2(C)[C@]1(O)C(=O)CO , state its recorded viability.
Solution: 115

Problem: Given c1ccc(Cn2c(-c3ccc(OC[C@H](C4CCNCC4)n4c(-c5ccccc5)nc5ccccc54)cc3)nc3ccccc32)cc1 , state its recorded viability.
Solution: 101

Problem: Given O=C(/C=C/c1ccc2ccccc2n1)c1ccncc1 , state its recorded viability.
Solution: 17.7

Problem: Given Nc1ncn([C@@H]2O[C@H](CO)[C@@H](O)[C@@H]2O)c(=O)n1 , state its recorded viability.
Solution: 116

Problem: Given COc1ccccc1-c1cc(Nc2cccc(CS(N)(=O)=O)c2)ncn1 , state its recorded viability.
Solution: 95.2

Problem: Given Nc1nonc1C(=Nc1ccc(F)c(Cl)c1)NO , state its recorded viability.
Solution: 98
